Provenance of the data: paper PMC5035790

experiment.description: Plasma pharmacokinetics of copanlisib
Format: in vivo, human
reported.conditions: human, plasma, intravenous, 0.8 mg/kg, AUC(0–25), cycle 1 day 1; cohort 4, 0.8 mg/kg, n=7; geometric mean (%CV)
result.type: AUC(0-t) (ng·h/mL)
// note: answer is a bare numeric in ng·h/mL

Look up AUC(0-t): COc1c(OCCCN2CCOCC2)ccc2c1N=C(NC(=O)c1cnc(N)nc1)N1CCN=C21 [copanlisib, Copanlisib] 1600

---

experiment.description: Plasma pharmacokinetics of copanlisib
Format: in vivo, human
reported.conditions: human, plasma, intravenous, 0.8 mg/kg, tmax, cycle 1 day 15; NHL expansion, 0.8 mg/kg, n=8; value (range)
result.type: Tmax (min)
Dear colleague, please return just the value in min, with no unit written.

Param item = COc1c(OCCCN2CCOCC2)ccc2c1N=C(NC(=O)c1cnc(N)nc1)N1CCN=C21 [copanlisib, Copanlisib] ; retrieve measured Tmax. 48

---

experiment.description: Plasma pharmacokinetics of copanlisib
Type: in vivo, human
reported.conditions: human, plasma, intravenous, 0.8 mg/kg, Cmax, cycle 1 day 15; MTD 0.8 mg/kg combined, n=36; geometric mean (%CV)
result.type: Cmax (ng/mL)
Enter your answer as a number in ng/mL; do not include the unit.

Please give the measured Cmax for this compound: COc1c(OCCCN2CCOCC2)ccc2c1N=C(NC(=O)c1cnc(N)nc1)N1CCN=C21 463

---

experiment.description: Plasma pharmacokinetics of copanlisib
Type: in vivo, human
reported.conditions: human, plasma, intravenous, 0.1 mg/kg, AUC(0–25), cycle 1 day 15; cohort 1, 0.1 mg/kg, n=1; individual data
result.type: AUC(0-t) (ng·h/mL)
Return type: number; implicit unit ng·h/mL.

I have this compound here, COc1c(OCCCN2CCOCC2)ccc2c1N=C(NC(=O)c1cnc(N)nc1)N1CCN=C21 , and I need its recorded AUC(0-t). 175
